Attribution: a melting point compilation (Tetko et al.; mined from patent text by program, amines drawn as free bases though some values may be those of a salt)

Catalogue of melting point values
Dear colleague, please return just the value in °C, with no unit written.

mol smiles: CCOc1ccc(F)cc1C(=O)c1sc2ncccc2c1N
reading: 130

Task: Hello, please tell me recorded melting point for this one: COc1ccc(CSc2cnc(O)nc2O)cc1
Result: 277

Task: Hello, please tell me recorded melting point for this one: ClC(Cl)=CCOc1cc(Cl)c(OCc2ccc(Cl)nc2)c(Cl)c1
Result: 93.3

Task: Hello, please tell me recorded melting point for this one: CCOc1cc(C=[N+]([O-])C2CCC2)ccc1OC
Result: 113

---

metric: melting point

compound: COc1ccc([N+](=O)[O-])cc1C(C#N)O[Si](C)(C)C (stereo unspecified)
melting point: 108 to 111 °C

compound: Cn1nc(-c2ccc(OC(F)(F)F)cc2)cc1CBr
melting point: 70 to 71 °C

compound: COC(=O)c1ccccc1C(=O)NC(C)(C)C#N
melting point: 100 to 101 °C

compound: Cn1c2cc(C(F)(F)F)ccc2c2oc(C(=O)Cl)cc21
melting point: 155 to 156 °C

Okay, next one:
Task: Hello, please tell me recorded melting point for this one: Nc1c(Br)cc([N+](=O)[O-])cc1C(F)(F)F
Result: 84 °C

---

Catalogue of melting point values

Record excerpt, results attached:
compound: O=c1ccc(-c2ccccc2O)n[nH]1
reading: 289 to 302 °C

compound: COc1cccc2c1Sc1ccc(Cl)cc1C2
reading: 95 to 96 °C

compound: C=Cn1cc(C(=O)O)c(=O)c2cc(F)c(-c3ccncc3)nc21
reading: 254 to 257 °C

Okay, next one:
Task: Hello, please tell me recorded melting point for this one: CC(=O)C1(O)C=c2ccccc2=NC1C (stereo not drawn)
Result: 54 to 56 °C

---

Catalogue of melting point values

molecule: CC(O)(c1ccc(F)cc1)C1CCN(CC2CC(c3ccc4[nH]c(=O)oc4c3)=NO2)CC1 (stereo not given)
melting point: 125 to 134 °C

molecule: CC(=O)OC1CSC(Oc2ccc3c(c2)nnn3C)C(OC(C)=O)C1OC(C)=O (stereo not given)
melting point: 80 °C

molecule: OCCn1cc(-c2cc3nccnc3[nH]2)c2ccccc21
melting point: 272 to 273 °C

molecule: CCCCOc1cc(/C=C(\OCC)C(=O)O)ccc1OCCc1ccc(NS(=O)(=O)CCCC)cc1
melting point: 164 °C

molecule: CN(C)C=Nc1sc([N+](=O)[O-])cc1C#N
melting point: 230 °C

Task: Hello, please tell me recorded melting point for this one: COc1cc(C(=O)N2CCC(CCN3CCC(C(=O)c4nc5ccccc5n4CCCC(=O)O)CC3)(c3ccc(Cl)c(Cl)c3)C2)cc(OC)c1OC (stereo not given)
Result: 125 to 140 °C

Task: Hello, please tell me recorded melting point for this one: CC1CC(O)CC2=CCC3C4CCC(=O)C4(C)CCC3C21C (stereo not given)
Result: 167 to 169 °C

Task: Hello, please tell me recorded melting point for this one: CCc1nc(NC(=N)N)sc1-c1cccc([N+](=O)[O-])c1
Result: 149 to 151 °C

Task: Hello, please tell me recorded melting point for this one: O=C1CC=C2N1CCN1C(=O)C[C@H]3CCCC[C@]231 (relative stereo)
Result: 105 to 125 °C

---

Catalogue of melting point values

Record excerpt, results attached:
compound: CC(C)c1cc(O)cc2nc(-c3ccc(O)cc3)oc12
reading: 200 °C

compound: COC(=N[N+](=O)[O-])NCc1cnc(Cl)s1
reading: 133 to 135 °C

compound: CCS(=O)c1cc(C(=O)O)c(OC)cc1N (centres undefined)
reading: 158 °C

compound: CCCc1cc(COc2cc(CC)nc(C)c2OC)ccc1-c1ccccc1S(=O)(=O)Nc1noc(C)c1C
reading: 63 to 65 °C

compound: O=C(O)CCCN(C(=O)c1ccc(Cl)c(Cl)c1)c1ccc2c(c1)CCC2
reading: 58 to 59 °C

Task: Hello, please tell me recorded melting point for this one: Cc1c(-c2ccccc2)c(N2CC[C@H](N(C)C)C2)c2oc(-c3cnn(C)c3)nc2c1C#N
Result: 214 to 222 °C

Task: Hello, please tell me recorded melting point for this one: CC(Oc1ccc2nc(NC(=O)NCCN3CCN(C(=O)OC(C)(C)C)CC3)sc2c1)c1c(Cl)ccc(F)c1Cl (centres undefined)
Result: 87 °C

Task: Hello, please tell me recorded melting point for this one: CC(C)Cn1c(C(C)O)nc2c(N)nc3ccccc3c21 (centres undefined)
Result: 145 to 149 °C

Task: Hello, please tell me recorded melting point for this one: CC(C)C(NS(=O)(=O)c1ccc(-c2ccc([N+](=O)[O-])cc2)cc1)C(=O)O (centres undefined)
Result: 165 to 167 °C

---

metric: melting point

Task: Hello, please tell me recorded melting point for this one: CC(=O)C1=C(O)C(=C(C)Nc2ccc(S)cc2)C(=O)OC1=O
Result: 207 to 210 °C

Task: Hello, please tell me recorded melting point for this one: O=c1oc(-c2cccc(F)c2)nc2cccc(Cl)c12
Result: 120 to 123 °C

Task: Hello, please tell me recorded melting point for this one: Cc1cc(S(=O)(=O)N2c3ccccc3-c3ccc(F)cc3C2C)ccc1O (stereo not given)
Result: 196 °C

Task: Hello, please tell me recorded melting point for this one: O=c1[nH]c(=Cc2ccc(OCc3ccccc3)cn2)c(=O)[nH]c1=CCc1ccccc1
Result: 223 to 225 °C

Task: Hello, please tell me recorded melting point for this one: CS(=O)(=O)c1ccc2nc(N)[nH]c2c1
Result: 233 to 238 °C

Task: Hello, please tell me recorded melting point for this one: COC(=O)c1ccn2c1C(C(=O)OC)CCC2 (stereo not given)
Result: 108 °C

Task: Hello, please tell me recorded melting point for this one: CN(C)CC1CCc2cc(NC(=O)c3ccc(Br)cc3)ccc2C1 (stereo not given)
Result: 141 to 143 °C

Task: Hello, please tell me recorded melting point for this one: O=C(Cc1c[nH]c2ccccc12)OCc1ccccc1
Result: 71 to 72 °C

Task: Hello, please tell me recorded melting point for this one: CC1(N2C(=O)c3ccc(CNC(=O)c4ccc(S(C)(=O)=O)cc4)cc3C2=O)CCC(=O)NC1=O (stereo not given)
Result: 166 to 168 °C

Task: Hello, please tell me recorded melting point for this one: Cc1cccc(C)c1Nc1nc(-c2nc3ccc(C(F)(F)F)cc3[nH]2)cs1
Result: 250 to 251 °C

---

metric: melting point

Record excerpt, results attached:
compound: Cn1cc2ccc(F)cc2c1
melting point: 60 to 65 °C
//
compound: Cc1ccc(-c2nc(NC(=O)OCC[Si](C)(C)C)cs2)cc1
melting point: 108 to 109 °C
//
compound: O=C(OCC1OC(n2cc(F)c(=O)[nH]c2=O)C(OC(=O)c2ccccc2)C1OC(=O)c1ccccc1)c1ccccc1 (stereo unspecified)
melting point: 208 to 209 °C
//
compound: Cc1ccc(S(=O)(=O)NC(=O)C2C(=O)CC3(CCCCC3)CC2=O)cc1
melting point: 150 to 152 °C
//
compound: CC(C)NC(=O)OCC(=O)c1ccc(Oc2ccccc2)cc1
melting point: 89 to 90 °C
//
compound: Cc1ccc(-c2cc3c(s2)CCCC(C(=O)Nc2ccc(CN(C)C4CCOCC4)cc2)=C3)cc1
melting point: 201 to 203 °C

Task: Hello, please tell me recorded melting point for this one: OCCc1c[nH]c2cc(Cl)c(Cl)cc12
Result: 65 to 67 °C

Task: Hello, please tell me recorded melting point for this one: CNC(=O)c1ccccc1Nc1nc(Nc2c(OC)ccc3c2CCOC(=O)N3C)ncc1Cl
Result: 160 °C

Task: Hello, please tell me recorded melting point for this one: O=C(O)CCNC(=O)c1ccccc1SSc1ccccc1C(=O)NCCC(=O)O
Result: 201 to 203 °C

Task: Hello, please tell me recorded melting point for this one: NS(=O)(=O)c1cccc(-c2cccc(-c3nc(-c4ccc(C(F)(F)F)nc4)cc(C(F)F)n3)c2)c1
Result: 222 °C

---

Catalogue of melting point values

Task: Hello, please tell me recorded melting point for this one: CN(C)c1ccc(C2(CNC(=O)Nc3c(F)cc(F)cc3CCc3cc(C(C)(C)C)c(O)c(C(C)(C)C)c3)CCCC2)cc1
Result: 165 to 166 °C

Task: Hello, please tell me recorded melting point for this one: COc1ccc(-c2cncc(OC3SCC(O)C(O)C3O)c2)cc1F (centres undefined)
Result: 200 °C

Task: Hello, please tell me recorded melting point for this one: O=C(O)Cc1ccc2c(c1)C(=O)Cc1cccnc1O2
Result: 181 to 184 °C

---

metric: melting point (°C)
Dear colleague, please return just the value in °C, with no unit written.

Record excerpt, results attached:
mol smiles: N#CC1(CC(=O)O)CCCCC1
reading: 102

mol smiles: CC(C)n1nc(O)ccc1=O
reading: 148

Okay, next one:
Task: Hello, please tell me recorded melting point for this one: COc1ccc(-c2cn(-c3cccc(OCCn4ccnc4)c3)c3ncnc(N)c23)cc1OCc1ccccc1
Result: 150
